# Target under test: Farnesyl pyrophosphate synthase (Homo sapiens)
# Sequence (P14324 whole entry): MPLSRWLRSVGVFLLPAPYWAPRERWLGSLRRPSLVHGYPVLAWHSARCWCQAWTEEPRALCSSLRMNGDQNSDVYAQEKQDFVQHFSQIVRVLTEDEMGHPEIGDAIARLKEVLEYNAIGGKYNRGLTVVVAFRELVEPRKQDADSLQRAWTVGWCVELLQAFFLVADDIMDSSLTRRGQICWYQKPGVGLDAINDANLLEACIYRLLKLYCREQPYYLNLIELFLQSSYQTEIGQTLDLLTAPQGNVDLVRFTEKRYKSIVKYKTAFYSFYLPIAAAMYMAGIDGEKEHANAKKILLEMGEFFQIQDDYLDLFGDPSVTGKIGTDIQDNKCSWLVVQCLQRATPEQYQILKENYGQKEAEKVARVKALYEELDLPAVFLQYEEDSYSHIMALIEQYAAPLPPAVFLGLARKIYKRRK
Here, each record is paired with measured IC50 data.

{"Molecule smiles": "O=P(O)(O)C(Cn1cnc2ccccc21)P(=O)(O)O", "Target under test": "Farnesyl pyrophosphate synthase (Homo sapiens)", "IC50 [nM]": 16.1}
{"Molecule smiles": "O=P(O)(O)C(CSc1ncc[nH]1)P(=O)(O)O", "Target under test": "Farnesyl pyrophosphate synthase (Homo sapiens)", "IC50 [nM]": 28.1}
{"Molecule smiles": "O=P(O)(O)C(Cn1cnc2cncnc21)P(=O)(O)O", "Target under test": "Farnesyl pyrophosphate synthase (Homo sapiens)", "IC50 [nM]": 388}
{"Molecule smiles": "O=P(O)(O)C(Cn1cnc2c(Cl)ncnc21)P(=O)(O)O", "Target under test": "Farnesyl pyrophosphate synthase (Homo sapiens)", "IC50 [nM]": 883}
